# CONDITION: human

# COMPOUND, Hepatotoxicity (choleostasis)
data = [
    ("Cc1cn([C@H]2C[C@H](N=[N+]=[N-])[C@@H](CO)O2)c(=O)[nH]c1=O [ZIDOVUDINE]", 3),
    ("Cn1c(=O)c2[nH]cnc2n(C)c1=O.O [THEOPHYLLINE]", 0),
    ("Cc1c(O)cccc1C(=O)N[C@@H](CSc1ccccc1)[C@H](O)CN1C[C@H]2CCCC[C@H]2C[C@H]1C(=O)NC(C)(C)C", 0),
    ("C#CC(O)(/C=C/Cl)CC (configuration not stated) [ETHCHLORVYNOL]", 2),
    ("Cc1cccc(N2CC(CO)OC2=O)c1 (configuration not stated) [TOLOXATONE]", 1),
    ("O=NN(CCCl)C(=O)N[C@H]1C(O)O[C@H](CO)[C@@H](O)[C@@H]1O (some centres not stated) [CHLOROZOTOCIN]", 1),
    ("CN1CCN(c2c(F)cc3c(=O)c(C(=O)O)cn(CCF)c3c2F)CC1 [FLEROXACIN]", 0),
    ("CCC(C(=O)NC(N)=O)c1ccccc1 (configuration not stated) [PHENETURIDE]", 0),
    ("CN(C)CCn1nnnc1SCC1=C(C(=O)O)N2C(=O)[C@@H](NC(=O)Cc3csc(N)n3)[C@H]2SC1 [CEFOTIAM]", 0),
    ("CCN(CCO)CCCC(C)Nc1ccnc2cc(Cl)ccc12 (configuration not stated) [HYDROXYCHLOROQUINE]", 1),
    ("O=c1[nH]c2ccccc2n1CCCN1CCN(C(c2ccccc2)c2ccccc2)CC1 [OXATOMIDE]", 2),
    ("CN(C)CC[C@@H](c1ccc(Cl)cc1)c1ccccn1 [DEXCHLORPHENIRAMINE]", 0),
    ("O=C(O)c1ccccc1Nc1cccc(C(F)(F)F)c1 [FLUFENAMIC ACID]", 0),
    ("CO/N=C(\\C(=O)N[C@@H]1C(=O)N2C(C(=O)O)=C(C)CS[C@H]12)c1csc(N)n1", 0),
    ("c1ccc2c(CCC3CCNCC3)c[nH]c2c1 [INDALPINE]", 1),
    ("CC[C@H]1OC(=O)[C@H](C)[C@@H](O[C@H]2C[C@@](C)(OC)[C@@H](O)[C@H](C)O2)[C@H](C)[C@@H](O[C@@H]2O[C@H](C)C[C@H](N(C)C)[C@H]2O)[C@](C)(O)C[C@@H](C)/C(=N\\OCOCCOC)[C@H](C)[C@@H](O)[C@]1(C)O [ROXITHROMYCIN]", 6),
    ("COCC1=C(C(=O)O)N2C(=O)[C@@H](NC(=O)/C(=N\\OC)c3csc(N)n3)[C@H]2SC1 [CEFPODOXIME]", 0),
]

---

Each item that follows carries a reported Hepatotoxicity (chronic liver disease).
# CONDITION: human, serum, 4383 h

# MOLECULE, Hepatotoxicity (chronic liver disease)
records = [
    ("C[C@H]1O[C@@H](O[C@H]2[C@@H](O)C[C@H](O[C@H]3[C@@H](O)C[C@H](O[C@H]4CC[C@@]5(C)[C@H](CC[C@@H]6[C@@H]5C[C@@H](O)[C@]5(C)[C@@H](C7=CC(=O)OC7)CC[C@]65O)C4)O[C@@H]3C)O[C@@H]2C)C[C@H](O)[C@@H]1O", 0),
    ("CN(C)CCCN1c2ccccc2CCc2ccccc21", 1),
    ("Cc1onc(-c2c(Cl)cccc2Cl)c1C(=O)N[C@@H]1C(=O)N2[C@@H]1SC(C)(C)[C@@H]2C(=O)O", 1),
    ("NS(=O)(=O)c1cc2c(cc1C(F)(F)F)NC(Cc1ccccc1)NS2(=O)=O (configuration not stated) [BENDROFLUMETHIAZIDE]", 0),
    ("c1ccc2c(CCC3CCNCC3)c[nH]c2c1", 0),
    ("O=C(O)CCCCCCNC1c2ccccc2CCc2ccccc21", 0),
    ("CCc1cc2c(s1)N(C)C(=O)CN=C2c1ccccc1Cl", 0),
]

---

# CONDITION: human, serum
TEST_READOUT: Hepatotoxicity (acute)

# COMPOUND, REPORTED_MEASUREMENT
data = [
    ("C[C@H](C(=O)O)c1ccc2oc(-c3ccc(F)cc3)nc2c1 [FLUNOXAPROFEN]", 0),
    ("O=C(OC[C@H]1O[C@@H](OC(=O)c2cc(O)c(O)c(OC(=O)c3cc(O)c(O)c(O)c3)c2)[C@H](OC(=O)c2cc(O)c(O)c(OC(=O)c3cc(O)c(O)c(O)c3)c2)[C@@H](OC(=O)c2cc(O)c(O)c(OC(=O)c3cc(O)c(O)c(O)c3)c2)[C@@H]1OC(=O)c1cc(O)c(O)c(OC(=O)c2cc(O)c(O)c(O)c2)c1)c1cc(O)c(O)c(OC(=O)c2cc(O)c(O)c(O)c2)c1 [TANNIC ACID]", 13),
    ("C/N=C(/Cc1ccc2ccccc2c1)NC [NAPACTADINE]", 0),
    ("CCNC1=Nc2ccc(Cl)cc2C(C)(c2ccccc2)O1 (stereo unspecified) [ETIFOXINE]", 1),
    ("CC/C(=C(/CC)c1ccc(OP(=O)(O)O)cc1)c1ccc(OP(=O)(O)O)cc1 [DIETHYLSTILBESTROL DIPHOSPHATE]", 0),
    ("O=C1NCCN1CCN1CCC(c2cn(-c3ccc(F)cc3)c3ccc(Cl)cc23)CC1 [SERTINDOLE]", 0),
    ("C[C@@H](O)[C@H]1C(=O)N2C(C(=O)O)=C(S[C@@H]3CN[C@H](C(=O)N(C)C)C3)[C@H](C)[C@H]12 [MEROPENEM]", 1),
    ("NNCCc1ccccc1 [PHENELZINE]", 6),
    ("O=C(O)c1cc(/N=N/c2ccc(S(=O)(=O)Nc3ccccn3)cc2)ccc1O [SULFASALAZINE]", 50),
    ("CC(C)(Oc1ccc(C2CC2(Cl)Cl)cc1)C(=O)O (stereo unspecified) [CIPROFIBRATE]", 3),
    ("Nc1ccc(C(=O)O)cc1 [AMINOBENZOIC ACID]", 3),
    ("COc1ccc(OC)c(Cc2cnc3nc(N)nc(N)c3c2C)c1 [PIRITREXIM]", 0),
    ("CCCCCCCCNC(C)C(O)c1ccc(SC(C)C)cc1 (stereo unspecified) [SULOCTIDIL]", 8),
    ("CC(=O)N[C@@H]1[C@H](Oc2c3cc4cc2Oc2ccc(cc2Cl)[C@@H](O[C@@H]2O[C@@H](CO)[C@@H](O)[C@H](O)[C@@H]2NC(C)=O)[C@@H]2NC(=O)[C@H](NC(=O)[C@@H]4NC(=O)[C@H]4NC(=O)[C@@H](Cc5ccc(c(Cl)c5)O3)NC(=O)[C@H](N)c3ccc(O)c(c3)Oc3cc(O)cc4c3)c3ccc(O)c(c3)-c3c(O[C@H]4O[C@H](CO)[C@@H](O)[C@@H](O)[C@@H]4O)cc(O)cc3[C@@H](C(=O)O)NC2=O)O[C@@H](CO)[C@@H](O)[C@@H]1O", 4),
    ("CCCCCNCC(N)=O [MILACEMIDE]", 1),
    ("CCN(CC)CCN1C(=O)CN=C(c2ccccc2F)c2cc(Cl)ccc21 [FLURAZEPAM]", 3),
    ("CCOC(=O)C1=C(C)NC(C)=C(C(=O)OCC)C1c1ccccc1/C=C/C(=O)OC(C)(C)C [LACIDIPINE]", 0),
    ("CCC1(C)CC(=O)NC1=O (stereo unspecified) [ETHOSUXIMIDE]", 0),
    ("CC1CCN(CCCC(=O)c2ccc(F)cc2)CC1 [MELPERONE]", 0),
    ("CCc1nc(N)nc(N)c1-c1ccc(Cl)cc1 [PYRIMETHAMINE]", 1),
    ("CC(C)Cc1ccc(CC(=O)O)cc1 [IBUFENAC]", 3),
    ("O=C(O)Cc1cn(-c2ccccc2)nc1-c1ccc(Cl)cc1 [LONAZOLAC]", 1),
    ("CCN(CCO)CCCC(C)Nc1ccnc2cc(Cl)ccc12 (stereo unspecified) [HYDROXYCHLOROQUINE]", 2),
    ("Cn1cnc([N+](=O)[O-])c1Sc1ncnc2nc[nH]c12 [AZATHIOPRINE]", 61),
    ("CNc1nc(N(C)C)nc(N(C)C)n1 [PENTAMETHYL MELAMINE]", 0),
    ("CN(C)CCCN1c2ccccc2Sc2ccccc21 [PROMAZINE]", 6),
    ("[H]/N=C(/N)N/C(=N/[H])NCCc1ccccc1 [PHENFORMIN]", 1),
    ("Cc1cc(C(=O)NNCc2ccccc2)no1 [ISOCARBOXAZID]", 4),
    ("CCc1cc(C(N)=S)ccn1 [ETHIONAMIDE]", 15),
    ("CCN(CC)CCNC(=O)c1ccc(N)cc1 [PROCAINAMIDE]", 4),
    ("Cc1ncc(CO)c(CO)c1O [PYRIDOXINE]", 1),
    ("CCOC(=O)NC1=C(N2CC2)C(=O)C(NC(=O)OCC)=C(N2CC2)C1=O [DIAZIQUONE]", 0),
    ("CC(=O)Nc1nnc(S(N)(=O)=O)s1 [ACETAZOLAMIDE]", 1),
    ("Cc1ccc(Cl)c(Nc2ccccc2C(=O)O)c1Cl [MECLOFENAMIC ACID]", 0),
    ("CC[C@@]1(O)C(=O)OCc2c1cc1n(c2=O)Cc2cc3c(CN(C)C)c(O)ccc3nc2-1 [TOPOTECAN]", 0),
    ("Cc1c(N(C)CS(=O)(=O)[O-])c(=O)n(-c2ccccc2)n1C.[Na+] [DIPYRONE SODIUM]", 3),
]

// data source = ChEMBL document CHEMBL3137667
